Source: patent US20250114313A1

test system: TNBC cells (SUM-159, MDA-MB-231); test: MTT cell viability, TNBC cells; format: cell-based, Human; conditions: MTT cell viability assays; read-out: antiproliferative IC50 against TNBC cells
assay_metric: pIC50
Scale: negative log10 of molar concentration, which is what pIC50 denotes.

In one line, give reported pIC50 of the entry `CC(C)COc1cc(C(=O)Nc2ccc(C(=O)N[C@H]3CC[C@H](C)CC3)cc2OCC(C)C)ccc1NC(=O)c1ccc([N+](=O)[O-])c(OCCO)c1` .
7.00

---

tested on: ERα-positive breast cancer cells (MCF-7, ZR-75); assay: MTT cell viability, ERα-positive breast cancer cells; format: cell-based, Human; conditions: Homo sapiens, MCF-7 and ZR-75, read-out: anti-proliferative IC50
pIC50: −log10 of the molar value.
assay_metric: pIC50

In one line, give reported pIC50 of the entry `CC(C)COc1cc(C(=O)Nc2ccc(C(=O)N[C@H]3CC[C@H](C)CC3)cc2OCC(C)C)ccc1NC(=O)c1ccc([N+](=O)[O-])c(OCCO)c1` .
6.90 to 7.00
